# Assayed target: BIR3 domain of XIAP (Homo sapiens (Human))
# Assay details: TR-FRET assay for BIR3 (inhibition of binding of XIAP BIR3 domain to SMAC-derived Peptide A)
# Condition: 6x His-tagged BIR3 domain (aa 241-356 of XIAP) 10 nM, Peptide A 20 nM, TR-FRET
pIC50: −log10 of the molar value. Where a name gives a salt, the structure may show the parent alone.
Reported metric: pIC50

| Compound | Experimental value |
| --- | --- |
| CN[C@@H](C)C(=O)N[C@H]1CN(C(=O)c2ccc(C(=O)OC)cc2)c2ccccc2N(Cc2c(C)ccc3ccccc23)C1=O [Example 96a, hydrochloride] | < 4.26 |
| CN[C@@H](C)C(=O)N[C@H]1CN(S(=O)(=O)c2ccc(OC)cc2)c2ccccc2N(Cc2c(C)ccc3ccccc23)C1=O [Example 98f] | < 4.30 |
| CC(=O)c1ccc(C(=O)N2C[C@H](NC(=O)[C@H](C)N)C(=O)N(Cc3noc4ccccc34)c3ccccc32)cc1 [Example 69k] | < 4.26 |
| CN[C@@H](C)C(=O)N[C@H]1CN(C(=O)c2ccc(C#N)cc2)c2ccccc2N(Cc2c(C)ccc3ccccc23)C1=O [Example 96d] | < 4.26 |
| CN[C@@H](C)C(=O)N[C@H]1CN(C(C)=O)c2cc(C#N)ccc2N(Cc2nn(-c3ccccc3C#N)c3ccccc23)C1=O [Example 169, hydrochloride] | < 4.26 |

====

# Assayed target: BIR2 domain of XIAP (Homo sapiens (Human), UniProt P98170, C202A/C213G)
# Sequence (P98170 124-240 with tags or gaps C202A/C213G limits assumed): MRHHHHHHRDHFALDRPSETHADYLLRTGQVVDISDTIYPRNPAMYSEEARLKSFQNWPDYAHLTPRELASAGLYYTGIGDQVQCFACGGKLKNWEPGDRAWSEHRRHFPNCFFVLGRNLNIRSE
# Assay details: TR-FRET assay for BIR2 (inhibition of binding of XIAP BIR2 domain to SMAC-derived Peptide A)
# Condition: 6x His-tagged BIR2 domain (aa 124-240 of XIAP) 10 nM, Peptide A 20 nM, TR-FRET; read-out: IC50 BIR2
Counter-ions that a name gives are not always drawn.
Reported metric: IC50 (nM)

| Compound | Reported metric | Experimental value |
| --- | --- | --- |
| CN[C@@H](C)C(=O)N[C@H]1CN(C(=O)c2cccc(C(C)=O)c2)c2ccccc2N(Cc2c(OC)ccc3cc(Br)ccc23)C1=O [Example 13l] | IC50 | 67 |
| CN[C@@H](C)C(=O)N[C@H]1CN(C(=O)Cc2cccnc2)c2ccccc2N(Cc2c(OC)ccc3c(Br)cccc23)C1=O [Example 88, hydrochloride] | IC50 | 14 |
| CN[C@@H](C)C(=O)N[C@H]1CN(C(=O)CCNC(=O)OCC2c3ccccc3-c3ccccc32)c2ccccc2N(Cc2c(OC)ccc3cc(C(=O)OC)ccc23)C1=O [Example 13r] | IC50 | 17 |
| CN[C@@H](C)C(=O)N[C@H]1CN(C(=O)c2ccc(NC(C)=O)cc2)c2ccccc2N(Cc2c(OC)ccc3ccccc23)C1=O [Example 42, hydrochloride] | IC50 | 37 |
| CN[C@@H](C)C(=O)N[C@H]1CN(C(=O)CCCCC(=O)OC)c2ccccc2N(Cc2c(C)ccc3ccccc23)C1=O [Example 13e] | IC50 | 308 |

====

# Assayed target: BIR3 domain of XIAP (Homo sapiens (Human), UniProt P98170)
# Sequence (P98170 241-356 with tags or gaps limits assumed): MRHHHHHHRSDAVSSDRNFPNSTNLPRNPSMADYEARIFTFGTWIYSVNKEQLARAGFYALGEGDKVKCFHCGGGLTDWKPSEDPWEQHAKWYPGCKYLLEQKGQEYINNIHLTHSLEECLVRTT
# Assay details: TR-FRET assay for BIR3 (inhibition of binding of XIAP BIR3 domain to SMAC-derived Peptide A)
# Condition: 6x His-tagged BIR3 domain (aa 241-356 of XIAP) 10 nM, Peptide A 20 nM, TR-FRET
pIC50: −log10 of the molar value. Where a name gives a salt, the structure may show the parent alone.
Measured pIC50 by item

| Compound | Assayed target | pIC50 |
| --- | --- | --- |
| CN[C@@H](C)C(=O)N[C@H]1CN(C(=O)CCCCC(=O)O)c2ccccc2N(Cc2c(C)ccc3ccccc23)C1=O [Example 60, hydrochloride] | BIR3 domain of XIAP (Homo sapiens (Human), UniProt P98170) | < 4.26 |
| CN[C@@H](C)C(=O)N[C@H]1CN(C(=O)c2ccc(NC(=O)OCC3c4ccccc4-c4ccccc43)cc2)c2ccccc2N(Cc2c(OC)ccc3cc(C(=O)OC)ccc23)C1=O [Example 55, hydrochloride] | BIR3 domain of XIAP (Homo sapiens (Human), UniProt P98170) | < 4.26 |
| CN[C@@H](C)C(=O)N[C@H]1CN(C(=O)CCCN)c2ccccc2N(Cc2c(OC)ccc3cc(C(=O)OC)ccc23)C1=O [Example 49, hydrochloride] | BIR3 domain of XIAP (Homo sapiens (Human), UniProt P98170) | < 4.26 |
| CCN[C@@H](CC)C(=O)NC1C(=O)N(Cc2c(OC)ccc3c(Br)cccc23)c2ccccc2N(c2ccccc2)C1=O (stereo partly shown) | BIR3 domain of XIAP (Homo sapiens (Human), UniProt P98170) | < 4.26 |
| CN[C@@H](C)C(=O)NC1C(=O)N(Cc2c(C)ccc3ccccc23)c2ccccc2N(c2ccccc2)C1=O (stereo partly shown) | BIR3 domain of XIAP (Homo sapiens (Human), UniProt P98170) | < 4.26 |
| CN[C@@H](C)C(=O)N[C@H]1CN(C(=O)c2ccc(C(C)=O)cc2)c2ccccc2N(Cc2c(C)ccc3ccccc23)C1=O [Example 13f] | BIR3 domain of XIAP (Homo sapiens (Human), UniProt P98170) | < 4.26 |
| CN[C@@H](C)C(=O)N[C@H]1CN(C(=O)CS(C)(=O)=O)c2ccccc2N(Cc2c(OC)ccc3ccccc23)C1=O [Example 82, hydrochloride] | BIR3 domain of XIAP (Homo sapiens (Human), UniProt P98170) | < 4.26 |
| CN[C@@H](C)C(=O)N[C@H]1CN(C(=O)CS(C)(=O)=O)c2cc(C#N)ccc2N(Cc2c(OC)ccc3c(Br)cccc23)C1=O [Example 160, hydrochloride] | BIR3 domain of XIAP (Homo sapiens (Human), UniProt P98170) | < 4.26 |
| CN[C@@H](C)C(=O)N[C@H]1CN(C(=O)Cc2ccccc2)c2ccccc2N(Cc2cccc3ccccc23)C1=O [Example 4, hydrochloride] | BIR3 domain of XIAP (Homo sapiens (Human), UniProt P98170) | < 4.27 |
| CN[C@@H](C)C(=O)N[C@H]1CN(C(=O)OC)c2ccccc2N(Cc2c(C)ccc3ccccc23)C1=O [Example 20, hydrochloride] | BIR3 domain of XIAP (Homo sapiens (Human), UniProt P98170) | < 4.26 |
| CN[C@@H](C)C(=O)N[C@H]1CN(C(=O)c2ccc(C(C)=O)cc2)c2ccccc2N(Cc2nn(-c3ccccc3C#N)c3ccccc23)C1=O [Example 120, trifluoroacetate] | BIR3 domain of XIAP (Homo sapiens (Human), UniProt P98170) | < 4.26 |
| CN[C@@H](C)C(=O)N[C@H]1CN(S(=O)(=O)NC)c2ccccc2N(Cc2c(C)ccc3ccccc23)C1=O [Example 98b] | BIR3 domain of XIAP (Homo sapiens (Human), UniProt P98170) | < 4.26 |
| CN[C@@H](C)C(=O)N[C@H]1CN(C(=O)c2ccc(C#N)cc2)c2ccccc2N(Cc2c(OC(F)F)ccc3ccccc23)C1=O | BIR3 domain of XIAP (Homo sapiens (Human), UniProt P98170) | < 4.26 |
